test system: Key Broadleaf Weed and Crop Species; test: Post-Emergent Test II: postemergent herbicidal activity, visual rating after 14 d (Table 7); format: in vivo; details: post-emergence, 336 h, EPHHL: wild poinsettia (Euphorbia heterophylla), 70 g ai/ha, read-out: Visual Growth Reduction (%) 14 Days After Application EPHHL
MEASURED PARAMETER: pest or weed control at 70 g/ha

Noted pest or weed control at 70 g/ha for Nc1cc(-c2c(F)ccc3c2OC(F)(F)O3)nc(C(=O)O)c1Cl , tested on Key Broadleaf Weed and Crop Species: 0 to 29%

Noted pest or weed control at 70 g/ha for COC(=O)c1nc(-c2cccc3c2OCO3)nc(N)c1OC , tested on Key Broadleaf Weed and Crop Species: 0 to 29%

Noted pest or weed control at 70 g/ha for COC(=O)c1nc(-c2ccc3c(c2)COC3)c(F)c(N)c1Cl , tested on Key Broadleaf Weed and Crop Species: 0 to 29%

Noted pest or weed control at 70 g/ha for Nc1cc(-c2ccc(F)c3c2OC(F)(F)O3)nc(C(=O)O)c1Cl , tested on Key Broadleaf Weed and Crop Species: 0 to 29%

Noted pest or weed control at 70 g/ha for COC(=O)c1nc(-c2ccc3c(c2)OCC3)c(F)c(N)c1Cl , tested on Key Broadleaf Weed and Crop Species: 95 to 100%

* * *

system: Key Grass and Sedge Weeds as well as Grass Crops; experiment: Post-Emergent Test II: postemergent herbicidal activity, visual rating after 14 d (Table 8); assay type: in vivo; details: post-emergence, 336 h, maize, corn (Zea mays), 35 g ai/ha, read-out: Visual Growth Reduction (%) 14 Days After Application ZEAMX
MEASURED PARAMETER: pest or weed control at 35 g/ha

The reported value for C=Cc1c(C(=O)O)nc(-c2cc3c(cc2F)OC(F)(F)O3)c(F)c1N [Compound 28] in terms of pest or weed control at 35 g/ha is 60 to 74%

The reported value for COC(=O)c1nc(-c2ccc3c(c2)OC(F)(F)O3)c(F)c(N)c1Cl [Compound 6] in terms of pest or weed control at 35 g/ha is 85 to 94%

The reported value for COC(=O)c1nc(-c2c(F)cc3c(c2F)OC(F)(F)O3)cc(N)c1Cl [Compound 46] in terms of pest or weed control at 35 g/ha is 0 to 29%

The reported value for COC(=O)c1nc(-c2cc3c(cc2F)OC(F)(F)O3)c(F)c(N)c1F [Compound 21] in terms of pest or weed control at 35 g/ha is 0 to 29%

The reported value for COC(=O)c1nc(-c2ccc3c(c2)OC(F)(F)O3)nc(N)c1Cl [Compound 60] in terms of pest or weed control at 35 g/ha is 60 to 74%

The reported value for COC(=O)c1nc(-c2ccc3c(c2)OC(F)(F)O3)c(C)c(N)c1Cl [Compound 49] in terms of pest or weed control at 35 g/ha is 30 to 44%

The reported value for COc1c(N)nc(-c2cc3c(cc2F)OC(F)(F)O3)nc1C(=O)O [Compound 68] in terms of pest or weed control at 35 g/ha is 45 to 59%

The reported value for Nc1nc(-c2ccc3c(c2F)OC(F)(F)O3)nc(C(=O)O)c1Cl [Compound 59] in terms of pest or weed control at 35 g/ha is 60 to 74%

The reported value for COC(=O)c1nc(-c2ccc3c(c2F)OC(F)(F)O3)nc(N)c1Cl [Compound 58] in terms of pest or weed control at 35 g/ha is 45 to 59%

* * *

test system: Direct Seeded Rice and weed species; test: Postemergence herbicidal activity in direct seeded rice, visual rating after 20-22 days and probit GR20/GR50/GR80/GR90 (Table 14); assay type: in vivo; conditions: SCPJU (Schoenoplectus juncoides Roxb.); probit analysis, dose for 80 percent growth reduction
MEASURED PARAMETER: GR80 SCPJU (g ai/ha)
Report only the number, with the unit g ai/ha understood.

The reported value for Nc1cc(-c2ccc3c(c2F)OC(F)(F)O3)nc(C(=O)O)c1Cl [Compound 41] in terms of GR80 SCPJU is 0.0001

The reported value for COc1c(C(=O)O)nc(-c2ccc3c(c2)OC(F)(F)O3)c(F)c1N [Compound 25] in terms of GR80 SCPJU is 0.0001

The reported value for COc1c(N)nc(-c2ccc3c(c2F)OC(F)(F)O3)nc1C(=O)O [Compound 66] in terms of GR80 SCPJU is 0.0001

The reported value for Nc1c(F)c(-c2cc3c(cc2F)OC(F)(F)O3)nc(C(=O)O)c1Cl [Compound 13] in terms of GR80 SCPJU is 0.0001

The reported value for COC(=O)c1nc(-c2ccc3c(c2F)OC(F)(F)O3)c(F)c(N)c1Cl [Compound 10] in terms of GR80 SCPJU is 0.0207

The reported value for Nc1cc(-c2cc3c(cc2F)OC(F)(F)O3)nc(C(=O)O)c1Cl [Compound 42] in terms of GR80 SCPJU is 0.0001

The reported value for Nc1c(F)c(-c2ccc3c(c2F)OC(F)(F)O3)nc(C(=O)O)c1Cl [Compound 11] in terms of GR80 SCPJU is 1

The reported value for COC(=O)c1nc(-c2ccc3c(c2F)OC(F)(F)O3)cc(N)c1Cl [Compound 37] in terms of GR80 SCPJU is 0.0001

* * *

system: Key Grass and Sedge Weeds as well as Grass Crops; assay: Post-Emergent Test II: postemergent herbicidal activity, visual rating after 14 d (Table 8); type: in vivo; conditions: post-emergence, 336 h, giant foxtail (Setaria faberi), 35 g ai/ha, read-out: Visual Growth Reduction (%) 14 Days After Application SETFA
Provide the recorded pest or weed control at 35 g/ha for the entries that follow.

The reported value for COC(=O)c1nc(-c2ccc3c(c2F)OC(F)(F)O3)c(F)c(N)c1Cl in terms of pest or weed control at 35 g/ha is 75 to 84%

The reported value for Nc1c(Cl)c(C(=O)O)nc(-c2ccc3c(c2F)OC(F)(F)O3)c1Cl in terms of pest or weed control at 35 g/ha is 0 to 29%

The reported value for Nc1c(F)c(-c2cccc3c2OC(F)(F)O3)nc(C(=O)O)c1Cl in terms of pest or weed control at 35 g/ha is 0 to 29%

The reported value for COC(=O)c1nc(-c2ccc3c(c2F)OC(F)(F)O3)nc(N)c1Cl in terms of pest or weed control at 35 g/ha is 30 to 44%

The reported value for Nc1c(F)c(-c2ccc(I)c3c2OC(F)(F)O3)nc(C(=O)O)c1Cl in terms of pest or weed control at 35 g/ha is 0 to 29%

The reported value for COC(=O)c1nc(-c2ccc(Cl)c3c2OC(F)(F)O3)c(F)c(N)c1Cl in terms of pest or weed control at 35 g/ha is 0 to 29%

The reported value for Nc1c(F)c(-c2ccc3c(c2)OC(F)(F)O3)nc(C(=O)O)c1Cl in terms of pest or weed control at 35 g/ha is 95 to 100%

The reported value for COC(=O)c1nc(-c2ccc3c(c2F)OC(F)(F)O3)c(Cl)c(N)c1Cl in terms of pest or weed control at 35 g/ha is 0 to 29%

The reported value for COc1c(N)nc(-c2ccc3c(c2F)OC(F)(F)O3)nc1C(=O)O in terms of pest or weed control at 35 g/ha is 75 to 84%

The reported value for COC(=O)c1nc(-c2ccc3c(c2OC)OC(F)(F)O3)cc(N)c1Cl in terms of pest or weed control at 35 g/ha is 0 to 29%

The reported value for COC(=O)c1nc(-c2ccc3c(c2)OC(F)(F)O3)c(F)c(N)c1OC in terms of pest or weed control at 35 g/ha is 0 to 29%

The reported value for Nc1c(F)c(-c2ccc(Br)c3c2OC(F)(F)O3)nc(C(=O)O)c1Cl in terms of pest or weed control at 35 g/ha is 0 to 29%

The reported value for C=Cc1c(C(=O)OC)nc(-c2cc3c(cc2F)OC(F)(F)O3)c(F)c1N in terms of pest or weed control at 35 g/ha is 0 to 29%

The reported value for Nc1nc(-c2ccc3c(c2F)OC(F)(F)O3)nc(C(=O)O)c1Cl in terms of pest or weed control at 35 g/ha is 45 to 59%

The reported value for Nc1cc(-c2cc3c(cc2F)OC(F)(F)O3)nc(C(=O)O)c1Cl in terms of pest or weed control at 35 g/ha is 60 to 74%

The reported value for Cc1c(-c2ccc3c(c2)OC(F)(F)O3)nc(C(=O)O)c(Cl)c1N in terms of pest or weed control at 35 g/ha is 0 to 29%

The reported value for COC(=O)c1nc(-c2cc3c(cc2F)OCO3)nc(N)c1OC in terms of pest or weed control at 35 g/ha is 0 to 29%

The reported value for Nc1c(F)c(-c2ccc(Cl)c3c2OC(F)(F)O3)nc(C(=O)O)c1Cl in terms of pest or weed control at 35 g/ha is 0 to 29%

The reported value for COC(=O)c1nc(-c2c(F)cc3c(c2F)OCO3)cc(N)c1Cl in terms of pest or weed control at 35 g/ha is 0 to 29%

The reported value for COC(=O)c1nc(-c2ccc3c(c2)OC(C)(C)O3)nc(N)c1Cl in terms of pest or weed control at 35 g/ha is 75 to 84%

The reported value for Nc1cc(-c2ccc3c(c2F)OC(F)(F)O3)nc(C(=O)O)c1Cl in terms of pest or weed control at 35 g/ha is 75 to 84%

The reported value for COc1cc(-c2nc(C(=O)O)c(Cl)c(N)c2F)cc2c1OCO2 in terms of pest or weed control at 35 g/ha is 0 to 29%

The reported value for Nc1c(F)c(-c2ccc3c(c2F)OC(F)(F)O3)nc(C(=O)O)c1Cl in terms of pest or weed control at 35 g/ha is 75 to 84%

The reported value for COc1c(C(=O)O)nc(-c2ccc3c(c2)OC(F)(F)O3)c(F)c1N in terms of pest or weed control at 35 g/ha is 45 to 59%

The reported value for Nc1cc(-c2cc(F)c3c(c2)OC(F)(F)O3)nc(C(=O)O)c1Cl in terms of pest or weed control at 35 g/ha is 0 to 29%

The reported value for COC(=O)c1nc(-c2cc3c(cc2OC)OC(F)(F)O3)cc(N)c1Cl in terms of pest or weed control at 35 g/ha is 0 to 29%

The reported value for COC(=O)c1nc(-c2ccc3c(c2)OC(C)(C)O3)nc(N)c1OC in terms of pest or weed control at 35 g/ha is 0 to 29%

The reported value for COC(=O)c1nc(-c2ccc3c(c2)OC(C)O3)c(F)c(N)c1Cl (stereo not drawn) in terms of pest or weed control at 35 g/ha is 45 to 59%

The reported value for Cc1c(-c2cc(N)c(Cl)c(C(=O)O)n2)ccc2c1OC(F)(F)O2 in terms of pest or weed control at 35 g/ha is 0 to 29%

The reported value for Nc1nc(-c2ccc3c(c2)OC(F)(F)O3)nc(C(=O)O)c1Cl in terms of pest or weed control at 35 g/ha is 60 to 74%

The reported value for COC(=O)c1nc(-c2ccc(F)c3c2OC(F)(F)O3)c(F)c(N)c1Cl in terms of pest or weed control at 35 g/ha is 0 to 29%

The reported value for COC(=O)c1nc(-c2ccc(Br)c3c2OC(F)(F)O3)c(F)c(N)c1Cl in terms of pest or weed control at 35 g/ha is 0 to 29%

The reported value for COC(=O)c1nc(-c2ccc3c(c2)OC(C)(C)O3)c(F)c(N)c1Cl in terms of pest or weed control at 35 g/ha is 85 to 94%

The reported value for COC(=O)c1nc(-c2cccc3c2OC(F)(F)O3)c(F)c(N)c1Cl in terms of pest or weed control at 35 g/ha is 0 to 29%

The reported value for C=Cc1c(C(=O)OC)nc(-c2cc3c(cc2F)OCO3)c(F)c1N in terms of pest or weed control at 35 g/ha is 0 to 29%

The reported value for COC(=O)c1nc(-c2cccc3c2OCO3)c(F)c(N)c1Cl in terms of pest or weed control at 35 g/ha is 0 to 29%
